# subjectOfTest: Stromal cell-derived factor 1 (Homo sapiens, UniProt P48061)
# Sequence (P48061 whole entry): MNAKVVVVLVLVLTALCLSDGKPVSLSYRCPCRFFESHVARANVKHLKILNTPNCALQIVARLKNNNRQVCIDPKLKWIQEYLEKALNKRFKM
# methodNotes: Binding affinity to human CXCL12 at 100 uM by glycan microarray analysis
In this section we review reported Activity values for a set of compounds.
// return numeric value only (unit: %, not printed)

# Activity of NCCOCCO[C@@H]1O[C@@H](C(=O)O)[C@@H](O[C@@H]2O[C@@H](C(=O)O)[C@@H](O)[C@H](O)[C@H]2O)[C@H](O)[C@H]1O = 66

Memo: NCCOCCO[C@@H]1O[C@@H](C(=O)O)[C@@H](OS(=O)(=O)O)[C@H](O)[C@H]1OS(=O)(=O)O , reported Activity: 75

// NCCOCCO[C@@H]1O[C@@H](C(=O)O)[C@@H](O[C@@H]2O[C@@H](C(=O)O)[C@@H](O[C@@H]3O[C@@H](C(=O)O)[C@@H](O[C@@H]4O[C@@H](C(=O)O)[C@@H](OS(=O)(=O)O)[C@H](O)[C@H]4O)[C@H](O)[C@H]3O)[C@H](O)[C@H]2O)[C@H](O)[C@H]1O : Activity value = 45

NCCOCCO[C@@H]1O[C@@H](C(=O)O)[C@@H](O[C@@H]2O[C@@H](C(=O)O)[C@@H](O[C@@H]3O[C@@H](C(=O)O)[C@@H](O[C@@H]4O[C@@H](C(=O)O)[C@@H](O)[C@H](O)[C@H]4O)[C@H](O)[C@H]3O)[C@H](O)[C@H]2O)[C@H](O)[C@H]1O has a reported Activity of 56

Kindly note the recorded Activity for NCCOCCO[C@@H]1O[C@@H](C(=O)O)[C@@H](O)[C@H](O)[C@H]1O , which is 62

The reported Activity of the compound NCCOCCO[C@@H]1O[C@@H](C(=O)O)[C@@H](O[C@@H]2O[C@@H](C(=O)O)[C@@H](O[C@@H]3O[C@@H](C(=O)O)[C@@H](OS(=O)(=O)O)[C@H](O)[C@H]3O)[C@H](O)[C@H]2O)[C@H](O)[C@H]1O was 92

====

# subjectOfTest: C-X-C motif chemokine 10 (Homo sapiens)
# methodNotes: Binding affinity to human CXCL10 at 100 uM by glycan microarray analysis
valueType: Activity (%)
Answer in %, number only, no unit symbol.

Some molecules with recorded Activity:
structureNotation	valueUnits	Activity
NCCOCCO[C@@H]1O[C@@H](C(=O)O)[C@@H](O[C@@H]2O[C@@H](C(=O)O)[C@@H](O[C@@H]3O[C@@H](C(=O)O)[C@@H](O[C@@H]4O[C@@H](C(=O)O)[C@@H](O)[C@H](O)[C@H]4O)[C@H](O)[C@H]3O)[C@H](O)[C@H]2O)[C@H](O)[C@H]1O	%	44
NCCOCCO[C@@H]1O[C@@H](C(=O)O)[C@@H](O)[C@H](O)[C@H]1O	%	47
NCCOCCO[C@@H]1O[C@@H](C(=O)O)[C@@H](OS(=O)(=O)O)[C@H](O)[C@H]1OS(=O)(=O)O	%	82

We next turn to a different molecule, shown below.
Lab note: measured Activity of NCCOCCO[C@@H]1O[C@@H](C(=O)O)[C@@H](O[C@@H]2O[C@@H](C(=O)O)[C@@H](OS(=O)(=O)O)[C@H](O)[C@H]2OS(=O)(=O)O)[C@H](O)[C@H]1OS(=O)(=O)O was 96
